tested on: CRL-2813; assay: Cell growth assay (sulforhodamine B), CRL-2813 cells; assay type: cell-based, human; conditions: Homo sapiens, CRL2813, 120 h, 5 days, SRB
Property Measured: IC50 (µM)
Write it as a number; the unit µM goes unstated.

These solved cases illustrate the format of a correct answer.
[
  {
    "Compound": "CC(C)(C)c1ccc(O)c(C2(c3cc(C(C)(C)C)ccc3OCCN3CCOCC3)C(=O)N(CCN3CCOCC3)c3ccccc32)c1 (stereo not drawn)",
    "Property Measured": "IC50",
    "Unit Of Measurement": "µM",
    "Reported Measurement": 2
  },
  {
    "Compound": "CC(C)(C)c1ccc(O)c(C2(c3cc(C(C)(C)C)ccc3OCCN3CCCCC3)C(=O)Nc3ccccc32)c1 (stereo not drawn)",
    "Property Measured": "IC50",
    "Unit Of Measurement": "µM",
    "Reported Measurement": 3.35
  },
  {
    "Compound": "CCN(C)CCOc1ccc(C(C)(C)C)cc1C1(c2cc(C(C)(C)C)ccc2O)C(=O)Nc2ccccc21 (stereo not drawn)",
    "Property Measured": "IC50",
    "Unit Of Measurement": "µM",
    "Reported Measurement": 1.5
  },
  {
    "Compound": "CN(C)CCOc1ccc(C(C)(C)C)cc1C1(c2cc(C(C)(C)C)ccc2O)C(=O)N(CCN(C)C)c2ccccc21 (stereo not drawn)",
    "Property Measured": "IC50",
    "Unit Of Measurement": "µM",
    "Reported Measurement": 0.9
  }
]

From here, focus on the item given below.
input: Quote IC50 reported for COc1ccc(OC)c(C2(c3cc(O)ccc3OC)C(=O)Nc3ccccc32)c1 (stereo not drawn) please.
output: 9.7
